# melting point annotations

Sample answers from the record:
| Compound | melting point |
| --- | --- |
| CCCCNC(=O)N1CC2OCc3cnnn3[C@@H]2C1 (stereo partly drawn) [Example 31] | 194 to 195 °C |
| CC(C)(C)OC(=O)N1C[C@@H]2OCc3c(-c4ccccc4)nnn3[C@H]2C1 [Example 55] | 236 to 237 °C |
| c1ccc(CN2C[C@@H]3[C@@H](C2)OCc2cnnn23)cc1 (relative stereo) [Example 4] | 101 to 102 °C |
| CC(C)(C)OC(=O)N1C[C@@H]2OCc3c(-c4cccc(F)c4)nnn3[C@H]2C1 [Example 56] | 249 to 250 °C |
| COc1ccc(CN2CC3OCc4cnnn4[C@@H]3C2)cc1 (stereo partly drawn) [Example 1] | 150 to 151 °C |
| O=C(OCc1ccccc1)N1CC2OCc3c(-c4ccccc4)nnn3[C@@H]2C1 (stereo partly drawn) [Example 34] | 209 to 212 °C |

The compound listed as Cc1nnn2c1CO[C@H]1CN(C(=O)OC(C)(C)C)C[C@@H]12 [Example 54] shows melting point equal to 195 to 196 °C

The compound listed as c1ccc(-c2nnn3c2COC2CN(c4ccccc4)C[C@H]23)cc1 (stereo partly drawn) [Example 45] shows melting point equal to 256 to 257 °C

The compound listed as FC(F)(F)c1ccc(-c2nnn3c2CO[C@@H]2CN(Cc4ccccc4)C[C@H]23)cc1 (relative stereo) [Example 6] shows melting point equal to 137 to 138 °C

---

# melting point annotations

| Compound | Meas Value |
| --- | --- |
| O=C(Nc1ccccc1)N1CC2OCc3cnnn3[C@@H]2C1 (some centres unmarked) | 227 to 228 °C |
| c1cnc(N2CC3OCc4cnnn4[C@@H]3C2)nc1 (some centres unmarked) | 256 to 257 °C |
| c1ccc(N2CC3OCc4cnnn4[C@@H]3C2)nc1 (some centres unmarked) | 216 °C (dec.) |

The compound listed as "CC(C)(C)OC(=O)N1C[C@@H]2OCc3cnnn3[C@H]2C1" shows melting point equal to 155 to 157 °C

The compound listed as O=S(=O)(c1ccccc1)N1CC2OCc3cnnn3[C@@H]2C1 (some centres unmarked) shows melting point equal to 168 to 170 °C

---

Assay Readout: melting point

Sample answers from the record:
| Compound | melting point |
| --- | --- |
| Clc1ccc(-c2nnn3c2CO[C@@H]2CN(Cc4ccccc4)C[C@H]23)cc1 (relative stereo) | 197 to 198 °C |
| O=C(Nc1ccccc1)N1CC2OCc3c(-c4ccccc4)nnn3[C@@H]2C1 (some centres unmarked) | 275 to 277 °C |
| CCN1CC2OCc3cnnn3[C@@H]2C1 (some centres unmarked) | 59 to 60 °C |
| c1ccc(N2CC3OCc4cnnn4[C@@H]3C2)cc1 (some centres unmarked) | 222 to 223 °C |

The compound listed as CS(=O)(=O)N1CC2OCc3c(-c4ccccc4)nnn3[C@@H]2C1 (some centres unmarked) shows melting point equal to 293 to 295 °C

---

# melting point annotations

Sample answers from the record:
| Compound | Meas Value |
| --- | --- |
| O=S(=O)(c1ccccc1F)N1CC2OCc3cnnn3[C@@H]2C1 (some centres unmarked) | 178 to 180 °C |
| CCCC(=O)N1C[C@@H]2[C@@H](C1)OCc1c(-c3ccccc3)nnn12 (relative stereo) | 202 to 204 °C |
| c1ccc(CN2C[C@@H]3[C@@H](C2)OCc2c(-c4ccccc4)nnn23)cc1 (relative stereo) | 154 to 155 °C |

The compound listed as O=C(c1ccccc1)N1CC2OCc3c(-c4ccccc4)nnn3[C@@H]2C1 (some centres unmarked) shows melting point equal to 237 to 239 °C

---

# melting point annotations

Sample answers from the record:
| Compound | melting point |
| --- | --- |
| c1nnn2c1COC1CNC[C@H]12 (stereo partly drawn) | 217 °C (dec.) |
| O=C(CCc1ccccc1)N1C[C@@H]2[C@@H](C1)OCc1c(-c3ccccc3)nnn12 (relative stereo) | 205 to 206 °C |

The compound listed as O=C(c1cccs1)N1CC2OCc3c(-c4ccccc4)nnn3[C@@H]2C1 (stereo partly drawn) shows melting point equal to 248 to 249 °C

The compound listed as CC(C)(C)OC(=O)N1CC2OCc3c(-c4ccc(C(F)(F)F)cc4)nnn3[C@H]2C1 (stereo partly drawn) shows melting point equal to 238 to 239 °C

The compound listed as CS(=O)(=O)N1CC2OCc3cnnn3[C@@H]2C1 (stereo partly drawn) shows melting point equal to 204 to 206 °C

The compound listed as O=S(=O)(c1ccc(F)cc1)N1CC2OCc3c(-c4ccccc4)nnn3[C@@H]2C1 (stereo partly drawn) shows melting point equal to 287 to 288 °C

The compound listed as Cc1nnn2c1CO[C@@H]1CN(Cc3ccccc3)C[C@H]12 (relative stereo) shows melting point equal to 103 to 104 °C

The compound listed as c1ccc(-c2nnn3c2COC2CN(c4ncccn4)C[C@H]23)cc1 (stereo partly drawn) shows melting point equal to 256 to 257 °C

The compound listed as O=C(c1ccccc1)N1CC2OCc3cnnn3[C@@H]2C1 (stereo partly drawn) shows melting point equal to 173 to 174 °C

---

# melting point annotations

Sample answers from the record:
| Compound | melting point |
| --- | --- |
| O=S(=O)(c1ccc(Br)cc1)N1CC2OCc3cnnn3[C@@H]2C1 (stereo partly shown) | 220 to 221 °C |
| Clc1ccc(N2CC3OCc4cnnn4[C@@H]3C2)cc1 (stereo partly shown) | 238 °C (dec.) |
| CCc1nnn2c1CO[C@@H]1CN(Cc3ccccc3)C[C@H]12 (relative stereo) | 106 to 107 °C |

Field: next compound
The compound listed as O=C(CCc1ccccc1)N1CC2OCc3cnnn3[C@@H]2C1 (stereo partly shown) shows melting point equal to 134 to 135 °C
